Assembled from different publications: pIC50 for 3-hydroxy-3-methylglutaryl-coenzyme A reductase (Homo sapiens).
pIC50 field: float, defined as -log10 of concentration (mol/L).

* CC(C)c1nc(-c2ccc(F)cc2)c(-c2cccc(Cl)c2)n1/C=C/[C@@H](O)C[C@@H](O)CC(=O)O | 8.09
* CC(C)n1c(CC[C@@H](O)C[C@@H](O)CC(=O)O)c(-c2ccc(F)cc2)c(-c2ccccc2)c1C(=O)Nc1ccc(C(=O)O)cc1 | 9.52
* COCc1ccc(CNC(=O)c2c(-c3ccccc3)c(-c3ccc(F)cc3)c(CC[C@@H](O)C[C@@H](O)CC(=O)O)n2C(C)C)cc1 | 9.15
* CNc1cccc(-c2nc(C(C)C)n(/C=C/[C@@H](O)C[C@@H](O)CC(=O)O)c2-c2ccc(F)cc2)c1 | 8.07
* CC(C)c1nc(-c2cccc(S(C)(=O)=O)c2)c(-c2ccc(F)cc2)n1/C=C/[C@@H](O)C[C@@H](O)CC(=O)O | 8.06
* O=C1C[C@H](O)C[C@@H](/C=C/c2c(C3CC3)nc3ccc(F)cc3c2Sc2ccc(F)cc2)O1 | 5.16

**Query** Lab note: 3-hydroxy-3-methylglutaryl-coenzyme A reductase (Homo sapiens) assay, enter pIC50 for CC(C)n1c(CC[C@@H](O)C[C@@H](O)CC(=O)[O-])c(-c2ccc(F)cc2)c(-c2ccccc2)c1C(N)=O.[Na+] here
**Result** 8.52

**Query** Lab note: 3-hydroxy-3-methylglutaryl-coenzyme A reductase (Homo sapiens) assay, enter pIC50 for COc1cccc(Sc2cc3nc(C4CC4)c(/C=C/[C@@H]4C[C@@H](O)CC(=O)O4)c(Sc4cccc(OC)c4)c3cc2F)c1 here
**Result** 5.15

**Query** Lab note: 3-hydroxy-3-methylglutaryl-coenzyme A reductase (Homo sapiens) assay, enter pIC50 for CC(C)c1cc(-c2ccc(F)cc2)c(-c2ccccc2)n1/C=C/[C@@H](O)C[C@@H](O)CC(=O)O here
**Result** 8.12

**Query** Lab note: 3-hydroxy-3-methylglutaryl-coenzyme A reductase (Homo sapiens) assay, enter pIC50 for CC(C)n1c(CC[C@@H](O)C[C@@H](O)CC(=O)O)c(-c2ccc(F)cc2)c(-c2ccccc2)c1C(=O)Nc1ccc(C(=O)N(C)C)cc1 here
**Result** 8.85

**Query** Lab note: 3-hydroxy-3-methylglutaryl-coenzyme A reductase (Homo sapiens) assay, enter pIC50 for Cc1csc(CNC(=O)c2c(-c3ccccc3)c(-c3ccc(F)cc3)c(CC[C@@H](O)C[C@@H](O)CC(=O)O)n2C(C)C)n1 here
**Result** 8.82
